Quick reference for Activity among some compounds
experiment: Induction of singlet oxygen production assessed as amount of DPiBF remaining after irradiation with light at 9 mW/cm'2 for 30 mins by DPiBF photooxidation based spectrophotometric analysis (reference value: 80%); format: physicochemical; settings: 0.5 h

Mol Smiles	Unit Info	Activity
COc1ccc(-c2c3nc(c(-c4ccc(OC)cc4)c4ccc([nH]4)c(-c4ccc(OC)cc4)c4nc(c(-c5ccc(OC)cc5)c5ccc2[nH]5)C=C4)C=C3)cc1	%	28
O=[N+]([O-])c1ccc(-c2c3nc(c(-c4ccccc4)c4ccc([nH]4)c(-c4ccccc4)c4nc(c(-c5ccccc5)c5ccc2[nH]5)C=C4)C=C3)cc1	%	33
C[n+]1ccc(-c2c3nc(c(-c4ccccc4)c4nc(c(-c5cc[n+](C)cc5)c5ccc([nH]5)c(-c5ccccc5)c5ccc2[nH]5)C=C4)C=C3)cc1.[I-].[I-]	%	18

Recorded values, source ChEMBL document CHEMBL3875199.
